System: RAW264.7 macrophages
Type: cell-based
Settings: mouse, 16 h
Procedure: Murine macrophage-like RAW 264.7 cells and HeLa human epithelial cells were obtained from the American Type Tissue Collection. BMDMs were isolated as previously described. […] In addition, toxicity was measured according the following procedure: 1) analyzing macrophage cell morphology; and 2) using MATLAB to count cells (cells that lift up and float after treatment are not within the appropriate Z plane to be counted, and thus are considered dead). […]
endpoint-label: Toxicity

- NC1CCN(CC(O)COc2ccc(Cl)cc2)CC1 (stereo not shown) [Compound 6]: >50 µM
- OC(CN[C@H]1[C@@H]2CNC[C@@H]21)COc1cc(Cl)cc(Cl)c1 (stereo partly shown) [Compound 18]: >50 µM
- OC(COc1ccc(Cl)c(Cl)c1)CN1CCC(n2ccnc2)CC1 (stereo not shown) [Compound 5]: >50 µM
- NC1CCN(CC(O)COc2cccc(C(F)(F)F)c2)CC1 (stereo not shown) [Compound 12]: >50 µM
- NC1CCN(CC(O)COc2c(Cl)cccc2Cl)CC1 (stereo not shown) [Compound 8]: >50 µM
- NC1CCN(CC(O)COc2ccc(Cl)cc2Cl)CC1 (stereo not shown) [Compound 7]: <50 but >25 μM
- N[C@@H]1CCN(CC(O)COc2ccc(Cl)c(Cl)c2)C1 (stereo partly shown) [Compound 9]: >50 µM
- CN(CCCCN)CC(O)COc1cc(Cl)cc(Cl)c1 (stereo not shown) [Compound 19]: <50 but >25 μM
- CC1(N)CCN(CC(O)COc2cc(Cl)cc(Cl)c2)CC1 (stereo not shown) [Compound 17]: <25 µM
- N[C@H]1CCN(C[C@@H](O)COc2ccc(Cl)c(Cl)c2)C1 [Compound 16]: >50 µM

* * *

System: RAW264.7 macrophages
Format: cell-based
Details: mouse, 16 h
Catalogue of compounds with associated Toxicity
endpoint-label: Toxicity

- N[C@@H]1CCN(C[C@H](O)COc2ccc(Cl)c(Cl)c2)C1: >50 µM
- COCCCN(C)C1CCN(CC(O)COc2ccc(Cl)c(Cl)c2)CC1 (stereo not drawn): >50 µM
- NC1CCN(C[C@@H](O)COc2ccc(Cl)c(Cl)c2)C1 (stereo partly drawn): >50 µM
- NC1CCN(CC(O)COc2ccc(Cl)c(Cl)c2)C1 (stereo not drawn): >50 µM
- N[C@@H]1CCN(C[C@@H](O)COc2ccc(Cl)c(Cl)c2)C1: >50 µM
- NCC1CCN(CC(O)COc2cc(Cl)cc(Cl)c2)C1 (stereo not drawn): <50 but >25 μM
- N[C@H]1CCN(C[C@H](O)COc2ccc(Cl)c(Cl)c2)C1: >50 µM
- NC1CCN(CC(O)COc2ccc(Cl)c(Cl)c2)CC1 (stereo not drawn): <25 µM
- NC1CCN(C[C@H](O)COc2ccc(Cl)c(Cl)c2)C1 (stereo partly drawn): >50 µM
